// reported inhibition of growth at 30 µg/mL for each item listed
Tested on: Fusarium verticillioides
Protocol details: Fungicidal activity against Fusarium moniliforme assessed as mycelium growth inhibition at 30 ug/mL after 72 hrs
Format: functional
Measurement context: read-out: GI
Recorded endpoint: inhibition of growth at 30 µg/mL (%)

>>> test_result("O=[N+]([O-])c1cc(O)c2cc(-c3ccccc3Cl)[nH]c2c1")
100
>>> test_result("Cn1c(-c2ccccc2)cc2c(O)cc([N+](=O)[O-])cc21")
51
>>> test_result("COc1ccccc1-c1cc2c(O)cc([N+](=O)[O-])cc2[nH]1")
36
>>> test_result("Nc1cc([N+](=O)[O-])c2cc(-c3ccccc3)oc2c1")
5
>>> test_result("O=[N+]([O-])c1cc(O)c2c(CCn3cncn3)c(-c3ccc(F)cc3)[nH]c2c1")
30
>>> test_result("O=[N+]([O-])c1cc(O)c2cc(-c3ccc(F)cc3)[nH]c2c1")
73
>>> test_result("CC(C)(C)C(=O)C(Oc1ccc(Cl)cc1)n1cncn1 (stereo unspecified)")
79
>>> test_result("O=[N+]([O-])c1cc(O)c2cc(-c3ccc(C(F)(F)F)cc3)[nH]c2c1")
84
>>> test_result("Cc1c(-c2ccccc2)[nH]c2c(O)cc([N+](=O)[O-])cc12")
71
>>> test_result("O=[N+]([O-])c1cc(O)c2cc(-c3ccccc3)n(Cc3ccc(Cl)cc3)c2c1")
18
>>> test_result("COc1cc([N+](=O)[O-])cc2[nH]c(-c3ccccc3)c(C)c12")
7
>>> test_result("O=[N+]([O-])c1cc(O)c2cc(-c3ccc(Cl)cc3Cl)[nH]c2c1")
54
>>> test_result("COc1cc([N+](=O)[O-])cc2c1c(C)c(-c1ccccc1)n2C")
8
>>> test_result("O=[N+]([O-])c1cc(O)c2cc(-c3ccc(O)cc3)[nH]c2c1")
39
>>> test_result("Cc1c(-c2ccccc2)[nH]c2c([N+](=O)[O-])cc(O)cc12")
54
>>> test_result("Cc1c(-c2ccccc2)[nH]c2cc([N+](=O)[O-])cc(O)c12")
100
>>> test_result("O=[N+]([O-])c1cc(O)c2cc(-c3ccccc3)[nH]c2c1")
100
>>> test_result("O=[N+]([O-])c1cc(O)c2cc(-c3ccc(Br)cc3)[nH]c2c1")
21
>>> test_result("COc1cc([N+](=O)[O-])cc2c1cc(-c1ccccc1)n2C")
23
>>> test_result("Cc1c(-c2ccccc2)[nH]c2c([N+](=O)[O-])ccc(O)c12")
84
>>> test_result("Cc1c(-c2ccccc2)[nH]c2c(O)ccc([N+](=O)[O-])c12")
88
